src = PubChem BioAssay

Here, each record is paired with measured insulin secretion stimulation data.
Procedure Summary: stimulators of insulin release from INS-1E, primary screen, cell-based, 5 mM glucose, NPC library (AID 1117329); also: reference of the scale not given here
Run Parameters: rat INS-1E insulin secretion, at 10 µM, stronger effect = higher value
Outcome Measure: insulin secretion stimulation (%)

> print(dat)
                                    molecule                outcome.measure  endpoint.unit  recorded.number
 1              CCOP(=S)(OCC)SCSc1ccc(Cl)cc1  insulin secretion stimulation              %            -1.15
 2                    c1ccc2c(c1)Nc1ccccc1S2  insulin secretion stimulation              %                1
 3   NCCS[As](SCCN)c1ccc(Nc2nc(N)nc(N)n2)cc1  insulin secretion stimulation              %              0.6
 4  C=CCN1CC[C@]23CCCC[C@H]2[C@H]1Cc1ccc(O)cc13  insulin secretion stimulation              %             12.2
 5  CC[N+]1(CCOC(=O)C(O)(c2ccccc2)c2ccccc2)CCCCC1  insulin secretion stimulation              %             -0.8
 6     CNCC(O)c1ccc(O)cc1 (stereo not given)  insulin secretion stimulation              %             0.25
 7  CN1C(=O)CCS(=O)(=O)C1c1ccc(Cl)cc1 (stereo not given)  insulin secretion stimulation              %              0.4
 8               CCCCCCCCCCCCCCCC[N+](C)(C)C  insulin secretion stimulation              %             -0.3
 9         COC[C@@H](NC(C)=O)C(=O)NCc1ccccc1  insulin secretion stimulation              %             -0.4
10           Cc1ncc(CNC(=O)N(CCCl)N=O)c(N)n1  insulin secretion stimulation              %              0.3
11                  CCOC(=O)c1ccccc1C(=O)OCC  insulin secretion stimulation              %             2.85
12  CC(Cc1ccc2c(c1)OCO2)NCC(O)c1ccc(O)c(O)c1 (stereo not given)  insulin secretion stimulation              %              2.9
13                                NCc1cccnc1  insulin secretion stimulation              %             -1.3
14  C[C@@H]1CC[C@H]2[C@@H](C)C(=O)O[C@@H]3O[C@@]4(C)CC[C@@H]1[C@]32OO4  insulin secretion stimulation              %              1.2
15      NCC(O)c1ccc(O)cc1 (stereo not given)  insulin secretion stimulation              %             -2.1
16  C[C@]12CC[C@@H]3c4ccc(OC(=O)N(CCCl)CCCl)cc4CC[C@H]3[C@@H]1CC[C@@H]2O  insulin secretion stimulation              %             -0.9
17  Clc1ccc(COC(Cn2ccnc2)c2ccc(Cl)cc2Cl)cc1 (stereo not given)  insulin secretion stimulation              %              2.8
18  Cc1nnc2n1-c1sc(CCC(=O)N3CCOCC3)cc1C(c1ccccc1Cl)=NC2  insulin secretion stimulation              %              3.7
19                         CCOc1cc(C=O)ccc1O  insulin secretion stimulation              %              0.4
20  CC(C)(C)NCC(O)c1ccccc1Cl (stereo not given)  insulin secretion stimulation              %             -1.2
21                               CC(C)NC(C)C  insulin secretion stimulation              %              4.3
22  CC(CCc1ccccc1)NC(C)C(O)c1ccc(O)cc1 (stereo not given)  insulin secretion stimulation              %             43.4
23                    Oc1ccc(Cl)cc1Cc1ccccc1  insulin secretion stimulation              %              0.7
24        CC(=O)C1CCOC1=O (stereo not given)  insulin secretion stimulation              %              3.7
25  CC[C@@H](CO)NC(=O)[C@@H]1C=C2c3cccc4c3c(cn4C)C[C@H]2N(C)C1  insulin secretion stimulation              %              2.6
26                     Clc1cccc(SC2CCNCC2)n1  insulin secretion stimulation              %              4.8
27  CCCOC(=O)c1cncn1C(C)c1ccccc1 (stereo not given)  insulin secretion stimulation              %              4.8
28  N[C@@H](Cc1ccc(Oc2cc(I)c(O)c(I)c2)c(I)c1)C(=O)O  insulin secretion stimulation              %              2.2
29  CCCC(C)C1(CC)C(=O)N=C(S)NC1=O (stereo not given)  insulin secretion stimulation              %             -0.2
30  CC(Cc1ccccc1)N(C)Cc1ccco1 (stereo not given)  insulin secretion stimulation              %              2.3
31  O=C1OC2(c3cc(Br)c(O)cc3Oc3c2cc(Br)c(O)[c]3[Hg])c2ccccc21 (stereo not given)  insulin secretion stimulation              %              7.2
32  C=C1CC[C@@]2(O)[C@H]3Cc4ccc(O)c5c4[C@@]2(CCN3CC2CC2)[C@H]1O5  insulin secretion stimulation              %              1.2
33                                NNc1ccccc1  insulin secretion stimulation              %             -1.6
34    Clc1ccc(C(c2ccc(Cl)cc2)C(Cl)(Cl)Cl)cc1  insulin secretion stimulation              %              2.7
35  CCCC[N+]1(C)[C@@H]2CC(OC(=O)[C@H](CO)c3ccccc3)C[C@H]1[C@@H]1O[C@@H]12 (stereo not given in full)  insulin secretion stimulation              %             0.85
36  O=[N+]([O-])O[C@H]1CO[C@H]2[C@@H]1OC[C@H]2O[N+](=O)[O-]  insulin secretion stimulation              %              0.2
37                          O=C(O)COc1ccccc1  insulin secretion stimulation              %             -2.7
38  Cc1c(Cl)c(=O)oc2cc(OP(=O)(OCCCl)OCCCl)ccc12  insulin secretion stimulation              %              4.8
39  O=C(NC(O)C(Cl)(Cl)Cl)NC(O)C(Cl)(Cl)Cl (stereo not given)  insulin secretion stimulation              %              9.2
40                COc1ccc(C(=O)N2CCCC2=O)cc1  insulin secretion stimulation              %             -0.2
41  CCCCC/C=C\C/C=C\C/C=C\C/C=C\CCCC(=O)NCC(=O)O  insulin secretion stimulation              %              2.2
42  CC(C)(C)NCC(O)c1cc(Cl)c(N)c(C(F)(F)F)c1 (stereo not given)  insulin secretion stimulation              %             -1.6
43  COc1ccc(C(=O)c2c(C)n(CCN3CCOCC3)c3ccccc23)cc1  insulin secretion stimulation              %             -0.5
44                     COP(=O)(OC)OC=C(Cl)Cl  insulin secretion stimulation              %             -1.6
45                       Oc1c(Br)cc(Br)cc1Br  insulin secretion stimulation              %             -0.4
46  CCOC(=O)CC(SP(=S)(OC)OC)C(=O)OCC (stereo not given)  insulin secretion stimulation              %             -1.5
47  C=CCN1C[C@H](C)N([C@H](c2ccc(C(=O)N(CC)CC)cc2)c2cccc(OC)c2)C[C@H]1C  insulin secretion stimulation              %             -1.1
48  O=c1oc2ccccc2c(O)c1C(CC(O)c1ccc(-c2ccc(Br)cc2)cc1)c1ccccc1 (stereo not given)  insulin secretion stimulation              %              3.6
49      CNC(C)Cc1ccccc1OC (stereo not given)  insulin secretion stimulation              %              7.2
50  O=c1ccc2cc(O[C@@H]3O[C@H](CO)[C@H](O)[C@H](O)[C@H]3O)c(O)cc2o1  insulin secretion stimulation              %                5
